The reported measurements were obtained from PubChem BioAssay AID1963846.

tested on: 454973-116-R2-J3-PDC complex spheroid viability; assay: Anticancer human tumor 454973-116-R2-J3-PDC patient-derived pancreatic carcinoma cell line growth inhibition [POLQ]; conditions: compound 0.316 µM; active compounds read low
Measure name: viability, T/C

Lab note: measured viability, T/C of Nc1ccc(C#CCN(C(=O)Cc2ncc(C(F)(F)F)cc2C(F)(F)F)c2ccc(F)cc2)nn1 was 107% [middle of 13 runs]

Lab note: measured viability, T/C of Cc1cccc(N(C)C(=O)C2C(O)CCN2c2nc(C)cc(C(F)(F)F)c2C#N)c1 (centres undefined) was 107% [middle of 13 runs]

Lab note: measured viability, T/C of COC1C(OC(N)=O)C(O)C(Oc2ccc3c(O)c(NC(=O)c4ccc(O)c(CC=C(C)C)c4)c(=O)oc3c2C)OC1(C)C (centres undefined) was 105% [middle of 13 runs]

Lab note: measured viability, T/C of O=C(c1cc(Cc2n[nH]c(=O)c3ccccc23)ccc1F)N1CCN(C(=O)C2CC2)CC1 was 101%

====

tested on: 454973-116-R2-J3-PDC complex spheroid viability; assay: Anticancer human tumor 454973-116-R2-J3-PDC cell line growth inhibition [POLQ]; conditions: second compound 1 µM; first compound 0.316 µM; active compounds read low;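 also: spheroids exposed to drugs for seven days before measurement; percent viability relative to DMSO vehicle control wells taken as 100%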
Measure name: viability, T/C (%)
Dear colleague, please return just the value in %, with no unit written.

Lab note: measured viability, T/C of CCc1cc2c(N3CCc4c(cc(Cn5ccnc5)cc4-c4cn(C)nc4C(F)(F)F)C3=O)ccnc2c(OC)n1 + Nc1ccc(C#CCN(C(=O)Cc2ncc(C(F)(F)F)cc2C(F)(F)F)c2ccc(F)cc2)nn1 was 93.3

Lab note: measured viability, T/C of O=C(Nc1ccc(O)c(NS(=O)(=O)c2ccc(F)cc2)c1)c1ccc(-c2ccccc2)cc1 + COC1C(OC(N)=O)C(O)C(Oc2ccc3c(O)c(NC(=O)c4ccc(O)c(CC=C(C)C)c4)c(=O)oc3c2C)OC1(C)C was 108

Lab note: measured viability, T/C of COc1cc(C2c3cc4c(cc3C(OC3OC5COC(C)OC5C(O)C3O)C3COC(=O)C23)OCO4)cc(OC)c1O (stereo not given) + Nc1ccc(C#CCN(C(=O)Cc2ncc(C(F)(F)F)cc2C(F)(F)F)c2ccc(F)cc2)nn1 was 79.1

Lab note: measured viability, T/C of CNCc1ccc(-c2[nH]c3cc(F)cc4c3c2CCNC4=O)cc1 + COC1C(OC(N)=O)C(O)C(Oc2ccc3c(O)c(NC(=O)c4ccc(O)c(CC=C(C)C)c4)c(=O)oc3c2C)OC1(C)C was 101

Lab note: measured viability, T/C of Nc1ccn(C2OC(CO)C(O)C2(F)F)c(=O)n1 (stereo not given) + Nc1ccc(C#CCN(C(=O)Cc2ncc(C(F)(F)F)cc2C(F)(F)F)c2ccc(F)cc2)nn1 was 6.52

Lab note: measured viability, T/C of C=CCn1c(=O)c2cnc(Nc3ccc(N4CCN(C)CC4)cc3)nc2n1-c1cccc(C(C)(C)O)n1 + COC1C(OC(N)=O)C(O)C(Oc2ccc3c(O)c(NC(=O)c4ccc(O)c(CC=C(C)C)c4)c(=O)oc3c2C)OC1(C)C was 79.2

Lab note: measured viability, T/C of O=C(Nc1ccc(O)c(NS(=O)(=O)c2ccc(F)cc2)c1)c1ccc(-c2ccccc2)cc1 + Nc1ccc(C#CCN(C(=O)Cc2ncc(C(F)(F)F)cc2C(F)(F)F)c2ccc(F)cc2)nn1 was 111

Lab note: measured viability, T/C of C=CC(=O)N1CCN(c2nc(=O)n(-c3c(C)ccnc3C(C)C)c3nc(-c4c(O)cccc4F)c(F)cc23)C(C)C1 (stereo not given) + COC1C(OC(N)=O)C(O)C(Oc2ccc3c(O)c(NC(=O)c4ccc(O)c(CC=C(C)C)c4)c(=O)oc3c2C)OC1(C)C was 105

Lab note: measured viability, T/C of COc1cccc2c1C(=O)c1c(O)c3c(c(O)c1C2=O)CC(O)(C(=O)CO)CC3OC1CC(N)C(O)C(C)O1 (stereo not given) + Cc1cccc(N(C)C(=O)C2C(O)CCN2c2nc(C)cc(C(F)(F)F)c2C#N)c1 was 26.6

Lab note: measured viability, T/C of C#Cc1c(F)ccc2cc(O)cc(-c3ncc4c(N5CC6CCC(C5)N6)nc(OCC56CCCN5CC(F)C6)nc4c3F)c12 (stereo not given) + COC1C(OC(N)=O)C(O)C(Oc2ccc3c(O)c(NC(=O)c4ccc(O)c(CC=C(C)C)c4)c(=O)oc3c2C)OC1(C)C was 34.7

====

Exercise: state measured viability, T/C for each of the compounds provided.
system: 454973-116-R2-J3-PDC complex spheroid viability; assay: Anticancer human tumor 454973-116-R2-J3-PDC cell line growth inhibition [POLQ]; details: second compound 10 µM; first compound 1 µM; active compounds read low;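 also: spheroids exposed to drugs for seven days before measurement; percent viability relative to DMSO vehicle control wells taken as 100%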
Dear colleague, please return just the value in %, with no unit written.

Entry COc1cccc(OCCCN)c1-c1cc(Nc2cnc(C#N)cn2)n[nH]1 + COC1C(OC(N)=O)C(O)C(Oc2ccc3c(O)c(NC(=O)c4ccc(O)c(CC=C(C)C)c4)c(=O)oc3c2C)OC1(C)C ; assay system 454973-116-R2-J3-PDC complex spheroid viability; viability, T/C recorded at 7.27

Entry COc1cccc(OCCCN)c1-c1cc(Nc2cnc(C#N)cn2)n[nH]1 + Nc1ccc(C#CCN(C(=O)Cc2ncc(C(F)(F)F)cc2C(F)(F)F)c2ccc(F)cc2)nn1 ; assay system 454973-116-R2-J3-PDC complex spheroid viability; viability, T/C recorded at 4.7

Entry O=c1[nH]cc(F)c(=O)[nH]1 + Nc1ccc(C#CCN(C(=O)Cc2ncc(C(F)(F)F)cc2C(F)(F)F)c2ccc(F)cc2)nn1 ; assay system 454973-116-R2-J3-PDC complex spheroid viability; viability, T/C recorded at 63.7

Entry CNCc1ccc(-c2[nH]c3cc(F)cc4c3c2CCNC4=O)cc1 + Cc1cccc(N(C)C(=O)C2C(O)CCN2c2nc(C)cc(C(F)(F)F)c2C#N)c1 ; assay system 454973-116-R2-J3-PDC complex spheroid viability; viability, T/C recorded at 95.6

Entry CCc1c2c(nc3ccc(O)cc13)-c1cc3c(c(=O)n1C2)COC(=O)[C@]3(O)CC + Cc1cccc(N(C)C(=O)C2C(O)CCN2c2nc(C)cc(C(F)(F)F)c2C#N)c1 ; assay system 454973-116-R2-J3-PDC complex spheroid viability; viability, T/C recorded at 4.16

Entry CCc1cc2c(N3CCc4c(cc(Cn5ccnc5)cc4-c4cn(C)nc4C(F)(F)F)C3=O)cc(C)nc2c(OC)n1 + Nc1ccc(C#CCN(C(=O)Cc2ncc(C(F)(F)F)cc2C(F)(F)F)c2ccc(F)cc2)nn1 ; assay system 454973-116-R2-J3-PDC complex spheroid viability; viability, T/C recorded at 78.6

Entry CC1COCCN1c1cc(C2(S(C)(=N)=O)CC2)nc(-c2ccnc3[nH]ccc23)n1 (stereo unspecified) + Nc1ccc(C#CCN(C(=O)Cc2ncc(C(F)(F)F)cc2C(F)(F)F)c2ccc(F)cc2)nn1 ; assay system 454973-116-R2-J3-PDC complex spheroid viability; viability, T/C recorded at 111

Entry C#Cc1c(F)ccc2cc(O)cc(-c3ncc4c(N5CC6CCC(C5)N6)nc(OCC56CCCN5CC(F)C6)nc4c3F)c12 (stereo unspecified) + Nc1ccc(C#CCN(C(=O)Cc2ncc(C(F)(F)F)cc2C(F)(F)F)c2ccc(F)cc2)nn1 ; assay system 454973-116-R2-J3-PDC complex spheroid viability; viability, T/C recorded at 28

Entry CCc1c2c(nc3ccc(O)cc13)-c1cc3c(c(=O)n1C2)COC(=O)[C@]3(O)CC + Nc1ccc(C#CCN(C(=O)Cc2ncc(C(F)(F)F)cc2C(F)(F)F)c2ccc(F)cc2)nn1 ; assay system 454973-116-R2-J3-PDC complex spheroid viability; viability, T/C recorded at 0.54

Entry CCc1cc2c(N3CCc4c(cc(Cn5ccnc5)cc4-c4cn(C)nc4C(F)(F)F)C3=O)cc(C)nc2c(OC)n1 + COC1C(OC(N)=O)C(O)C(Oc2ccc3c(O)c(NC(=O)c4ccc(O)c(CC=C(C)C)c4)c(=O)oc3c2C)OC1(C)C ; assay system 454973-116-R2-J3-PDC complex spheroid viability; viability, T/C recorded at 85.3

Entry C=CC(=O)N1CCN(c2nc(=O)n(-c3c(C)ccnc3C(C)C)c3nc(-c4c(O)cccc4F)c(F)cc23)C(C)C1 (stereo unspecified) + Nc1ccc(C#CCN(C(=O)Cc2ncc(C(F)(F)F)cc2C(F)(F)F)c2ccc(F)cc2)nn1 ; assay system 454973-116-R2-J3-PDC complex spheroid viability; viability, T/C recorded at 123

Entry CC1COCCN1c1cc(-c2ccnn2C)c2ccnc(-c3ccn[nH]3)c2n1 (stereo unspecified) + COC1C(OC(N)=O)C(O)C(Oc2ccc3c(O)c(NC(=O)c4ccc(O)c(CC=C(C)C)c4)c(=O)oc3c2C)OC1(C)C ; assay system 454973-116-R2-J3-PDC complex spheroid viability; viability, T/C recorded at 16.7

Entry C=CCn1c(=O)c2cnc(Nc3ccc(N4CCN(C)CC4)cc3)nc2n1-c1cccc(C(C)(C)O)n1 + Cc1cccc(N(C)C(=O)C2C(O)CCN2c2nc(C)cc(C(F)(F)F)c2C#N)c1 ; assay system 454973-116-R2-J3-PDC complex spheroid viability; viability, T/C recorded at 8.81

Entry O=C(c1cc(Cc2n[nH]c(=O)c3ccccc23)ccc1F)N1CCN(C(=O)C2CC2)CC1 + Nc1ccc(C#CCN(C(=O)Cc2ncc(C(F)(F)F)cc2C(F)(F)F)c2ccc(F)cc2)nn1 ; assay system 454973-116-R2-J3-PDC complex spheroid viability; viability, T/C recorded at 112

Entry C#Cc1c(F)ccc2cc(O)cc(-c3ncc4c(N5CC6CCC(C5)N6)nc(OCC56CCCN5CC(F)C6)nc4c3F)c12 (stereo unspecified) + Cc1cccc(N(C)C(=O)C2C(O)CCN2c2nc(C)cc(C(F)(F)F)c2C#N)c1 ; assay system 454973-116-R2-J3-PDC complex spheroid viability; viability, T/C recorded at 31.8

Entry COc1ccc([C@@H](O)c2cc(-c3ncnc4cc(N5CCOCC5)ccc34)c(F)cc2Cl)nn1 + COC1C(OC(N)=O)C(O)C(Oc2ccc3c(O)c(NC(=O)c4ccc(O)c(CC=C(C)C)c4)c(=O)oc3c2C)OC1(C)C ; assay system 454973-116-R2-J3-PDC complex spheroid viability; viability, T/C recorded at 83.5

Entry CCc1cc2c(N3CCc4c(cc(Cn5ccnc5)cc4-c4cn(C)nc4C(F)(F)F)C3=O)ccnc2c(OC)n1 + COC1C(OC(N)=O)C(O)C(Oc2ccc3c(O)c(NC(=O)c4ccc(O)c(CC=C(C)C)c4)c(=O)oc3c2C)OC1(C)C ; assay system 454973-116-R2-J3-PDC complex spheroid viability; viability, T/C recorded at 86.5

Entry CC(C)n1c(=O)n(C)c2cnc3cc(F)c(-c4ccc(OCCCN5CCCCC5)nc4)cc3c21 + Cc1cccc(N(C)C(=O)C2C(O)CCN2c2nc(C)cc(C(F)(F)F)c2C#N)c1 ; assay system 454973-116-R2-J3-PDC complex spheroid viability; viability, T/C recorded at 98.6

Entry COc1ccc([C@@H](O)c2cc(-c3ncnc4cc(N5CCOCC5)ccc34)c(F)cc2Cl)nn1 + Nc1ccc(C#CCN(C(=O)Cc2ncc(C(F)(F)F)cc2C(F)(F)F)c2ccc(F)cc2)nn1 ; assay system 454973-116-R2-J3-PDC complex spheroid viability; viability, T/C recorded at 93.7

Entry CCCS(=O)(=O)Nc1ccc(F)c(C(=O)c2c[nH]c3ncc(-c4ccc(Cl)cc4)cc23)c1F + Cc1cccc(N(C)C(=O)C2C(O)CCN2c2nc(C)cc(C(F)(F)F)c2C#N)c1 ; assay system 454973-116-R2-J3-PDC complex spheroid viability; viability, T/C recorded at 111

Entry Nc1ccn(C2OC(CO)C(O)C2(F)F)c(=O)n1 (stereo unspecified) + COC1C(OC(N)=O)C(O)C(Oc2ccc3c(O)c(NC(=O)c4ccc(O)c(CC=C(C)C)c4)c(=O)oc3c2C)OC1(C)C ; assay system 454973-116-R2-J3-PDC complex spheroid viability; viability, T/C recorded at 12.4
